# Tested Target: human recombinant HDAC6 (Homo sapiens)
# Sequence (Q9UBN7 1-1215): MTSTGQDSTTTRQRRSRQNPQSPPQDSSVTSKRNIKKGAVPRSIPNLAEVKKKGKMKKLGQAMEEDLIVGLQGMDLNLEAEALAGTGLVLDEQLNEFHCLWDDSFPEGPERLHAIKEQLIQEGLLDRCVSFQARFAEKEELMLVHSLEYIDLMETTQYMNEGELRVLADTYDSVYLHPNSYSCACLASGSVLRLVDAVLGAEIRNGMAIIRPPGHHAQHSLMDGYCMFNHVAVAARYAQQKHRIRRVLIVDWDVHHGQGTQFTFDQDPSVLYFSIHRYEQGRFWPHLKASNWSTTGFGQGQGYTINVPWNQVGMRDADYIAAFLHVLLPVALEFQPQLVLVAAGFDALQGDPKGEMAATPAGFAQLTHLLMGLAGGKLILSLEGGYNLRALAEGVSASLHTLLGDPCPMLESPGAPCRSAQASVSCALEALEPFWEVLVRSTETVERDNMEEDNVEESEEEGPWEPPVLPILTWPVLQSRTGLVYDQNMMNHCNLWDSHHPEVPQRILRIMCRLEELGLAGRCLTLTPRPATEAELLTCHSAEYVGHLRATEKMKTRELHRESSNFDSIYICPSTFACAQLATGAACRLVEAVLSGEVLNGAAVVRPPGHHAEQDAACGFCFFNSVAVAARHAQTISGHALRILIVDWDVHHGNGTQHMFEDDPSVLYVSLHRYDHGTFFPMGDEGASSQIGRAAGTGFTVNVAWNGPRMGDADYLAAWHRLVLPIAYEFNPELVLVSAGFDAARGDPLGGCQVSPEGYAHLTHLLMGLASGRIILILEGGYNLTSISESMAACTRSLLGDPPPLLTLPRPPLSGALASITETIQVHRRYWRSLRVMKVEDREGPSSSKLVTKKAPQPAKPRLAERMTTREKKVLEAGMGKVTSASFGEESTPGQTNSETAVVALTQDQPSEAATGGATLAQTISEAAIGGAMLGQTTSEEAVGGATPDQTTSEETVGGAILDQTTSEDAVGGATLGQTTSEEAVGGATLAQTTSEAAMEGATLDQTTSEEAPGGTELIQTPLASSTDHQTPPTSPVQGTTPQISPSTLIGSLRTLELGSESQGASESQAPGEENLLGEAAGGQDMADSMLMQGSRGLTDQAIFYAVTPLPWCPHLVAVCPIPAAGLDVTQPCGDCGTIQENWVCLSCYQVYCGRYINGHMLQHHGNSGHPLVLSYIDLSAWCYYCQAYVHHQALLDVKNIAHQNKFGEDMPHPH
# Experimental Protocol: HDAC6 enzyme activity inhibition assay (HDAC Fluorimetric Drug Discovery Kit)
# Applied Conditions: same protocol as the HDAC1 enzyme activity test
Please use True for IC50 under 80 nM and False for everything else, ties included.

INSERT INTO assay_data (compound_structure, class_label) VALUES
  ('CS(=O)(=O)N(Cc1ccc(-c2nnc(C(F)(F)F)o2)cn1)c1cccc(F)c1', 'True');

Exercise: Strictly below 80 nM: is that where IC50 of CN1CC(N2CCC(S(=O)(=O)N(Cc3ccc(-c4nnc(C(F)F)o4)cc3)c3cccc(Cl)c3)CC2)C1 sits?
Key: True

Exercise: Strictly below 80 nM: is that where IC50 of CCS(=O)(=O)N(Cc1ccc(-c2nnc(C(F)F)o2)cn1)c1ccc(F)c(F)c1 sits?
Key: True
